Collected pIC50 values appear next to each entry.
target: OXA-48 (Klebsiella pneumoniae, UniProt Q6XEC0); construct: made in house; host or cells: E. coli; assay: β-lactamase inhibitory activity, determination of IC50 (nitrocefin hydrolysis); format: biochemical; conditions: class (D); nitrocefin 200 μM, 30 min pre-incubation; read-out: IC50 β-lactamase OXA-48
Sequence (Q6XEC0 23-265 limits assumed): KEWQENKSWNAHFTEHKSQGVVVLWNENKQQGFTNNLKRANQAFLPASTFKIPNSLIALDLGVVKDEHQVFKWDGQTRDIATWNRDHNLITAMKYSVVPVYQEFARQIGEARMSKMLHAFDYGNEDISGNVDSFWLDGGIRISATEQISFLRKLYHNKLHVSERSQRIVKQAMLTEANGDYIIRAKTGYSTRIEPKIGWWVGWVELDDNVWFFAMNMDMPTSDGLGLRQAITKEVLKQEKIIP
pIC50: −log10 of the molar value.
READOUT: pIC50

INSERT INTO results (compound, measured_value) VALUES
  ('O=C1N2CC(c3nc4cccnc4s3)=CC(C2)N1OS(=O)(=O)[O-].[Na+] (centres unmarked) [Example 40, sulfate]', 8.57),
  ('O=C1N2CC(c3ccncc3)=CC(C2)N1OS(=O)(=O)[O-].[Na+] (centres unmarked)', 7.92),
  ('O=C1N2CC=C(c3cnoc3)C(C2)N1OS(=O)(=O)[O-].[Na+] (centres unmarked) [Example 5, sulfate]', 8.24),
  ('O=C1N2CC=C(c3cscn3)C(C2)N1OS(=O)(=O)[O-].[Na+] (centres unmarked) [Example 31, sulfate]', 8.64),
  ('O=C1N2CC=C(c3cnsc3)C(C2)N1OS(=O)(=O)[O-].[Na+] (centres unmarked) [Example 29, sulfate]', 8.55),
  ('Cn1cc(C2=CCN3CC2N(OS(=O)(=O)[O-])C3=O)ccc1=O.[Na+] (centres unmarked) [Example 8, sulfate]', 8.66),
  ('Cn1c(C2=CCN3CC2N(OS(=O)(=O)[O-])C3=O)cccc1=O.[Na+] (centres unmarked) [Example 18, sulfate]', 7.70),
  ('O=C1N2CC(n3ccnc3)=CC(C2)N1OS(=O)(=O)[O-].[Na+] (centres unmarked)', 6.66);
